Hello, the source for this data is the RepoRT retention time repository (doi:10.1007/s11306-011-0298-z), in case you need it.

assay: RP, Waters ACQUITY UPLC HSS T3, 100 × 2.1 mm, 1.8 µm, 30 °C, 0.3 mL/min, estimated dead time 0.73 min; A: water + 0.1% formic acid, pH 3; B: methanol + 0.1% formic acid, pH 3; gradient (min/%B) 0/0 6/0 56/100 60/100; settings: stereoisomer not certain
experimental_readout: LC retention time (min)

Consider the reported LC retention time for these compounds:
[
  {
    "compound": "CC1OC(OCC2OC(Oc3c(-c4ccc(O)c(O)c4)oc4cc(O)cc(O)c4c3=O)C(O)C(O)C2O)C(O)C(O)C1O (stereo unspecified) [quercetin 3-rutinoside]",
    "experimental_readout": "LC retention time",
    "unit_descriptor": "min",
    "obs_value": 29.1
  },
  {
    "compound": "COC1OC(C(=O)O)C(O)C(O)C1O (stereo unspecified) [methyl-glucuronide]",
    "experimental_readout": "LC retention time",
    "unit_descriptor": "min",
    "obs_value": 2.4
  },
  {
    "compound": "CCC=CCC=CCC=CCCCCCCCC(=O)O",
    "experimental_readout": "LC retention time",
    "unit_descriptor": "min",
    "obs_value": 52.3
  },
  {
    "compound": "COc1cc(-c2oc3cc(O)cc(O)c3c(=O)c2OC2OC(CO)C(O)C(O)C2O)ccc1O (stereo unspecified) [isorhamnetin 3-glucoside]",
    "experimental_readout": "LC retention time",
    "unit_descriptor": "min",
    "obs_value": 31.5
  },
  {
    "compound": "Cc1c(C)c2c(c(C)c1O)CCC(C)(CCCC(C)CCCC(C)CCCC(C)C)O2 (stereo unspecified)",
    "experimental_readout": "LC retention time",
    "unit_descriptor": "min",
    "obs_value": 59.2
  },
  {
    "compound": "CC(C=CC1(O)C(C)=CC(=O)CC1(C)C)=CC(=O)O (stereo unspecified) [abscisic acid]",
    "experimental_readout": "LC retention time",
    "unit_descriptor": "min",
    "obs_value": 31.3
  },
  {
    "compound": "C=CC(C)(O)CCC1C(C)(O)CCC2C(C)(C)CCCC21C (stereo unspecified)",
    "experimental_readout": "LC retention time",
    "unit_descriptor": "min",
    "obs_value": 50.1
  },
  {
    "compound": "OCC1OC(Oc2ccc(O)cc2)C(O)C(O)C1O (stereo unspecified)",
    "experimental_readout": "LC retention time",
    "unit_descriptor": "min",
    "obs_value": 7.61
  },
  {
    "compound": "COc1ccc(-c2cc(=O)c3c(OC)c(OC)c(OC)cc3o2)cc1OC",
    "experimental_readout": "LC retention time",
    "unit_descriptor": "min",
    "obs_value": 39.3
  },
  {
    "compound": "O=c1c(OC2OC(CO)C(O)C(O)C2O)c(-c2ccc(OC3OC(CO)C(O)C(O)C3O)c(O)c2)oc2cc(O)cc(O)c12 (stereo unspecified) [quercetin 3,4'-diglucoside]",
    "experimental_readout": "LC retention time",
    "unit_descriptor": "min",
    "obs_value": 26.1
  }
]

[P] COc1cc(C=Cc2ccc(O)cc2)cc(OC)c1
[Q] O=C(O)C(=O)O
[R] CC(C)(CO)C(O)C(=O)NCCC(=O)O (stereo unspecified)
[S] Nc1ncnc2c1ncn2C1OC(COP(=O)(O)O)C(O)C1O (stereo unspecified)
[T] O=C(O)/C=C/c1ccc(O)cc1
Query string: Please rank these compounds by LC retention time in descending order. Please respond by ranking the labels in the order requested.
Result string: P, T, R, S, Q

----------
assay: RP, Waters ACQUITY UPLC HSS T3, 100 × 2.1 mm, 1.8 µm, 30 °C, 0.3 mL/min, estimated dead time 0.73 min; A: water + 0.1% formic acid, pH 3; B: methanol + 0.1% formic acid, pH 3; gradient (min/%B) 0/0 6/0 56/100 60/100; details: stereoisomer not certain
experimental_readout: LC retention time (min)

As a guide, the following entries are already answered.
[
  {
    "molecule": "OCC1OC(Oc2cc(O)cc(C=Cc3ccc(O)c(O)c3)c2)C(O)C(O)C1O (centres undefined)",
    "unit_descriptor": "min",
    "LC retention time": 22.7
  },
  {
    "molecule": "COc1cc(C=Cc2cc(O)cc(OC3OC(CO)C(O)C(O)C3O)c2)ccc1O (centres undefined)",
    "unit_descriptor": "min",
    "LC retention time": 26.1
  }
]

[A] OCC1OC(OC2C(CO)OC(O)C(O)C2O)C(O)C(O)C1O (centres undefined)
[B] CCC[C@H](N)C(=O)O
[C] C=CCc1ccc(OC(C)=O)c(OC)c1 [eugenyl acetate]
Query string: Reorder: LC retention time, max to min. Answer format: the labels, ordered as requested.
Result string: C, B, A

----------
assay: RP, Waters ACQUITY UPLC HSS T3, 100 × 2.1 mm, 1.8 µm, 30 °C, 0.3 mL/min, estimated dead time 0.73 min; A: water + 0.1% formic acid, pH 3; B: methanol + 0.1% formic acid, pH 3; gradient (min/%B) 0/0 6/0 56/100 60/100; details: stereoisomer not certain
experimental_readout: LC retention time (min)

[
  {
    "molecule": "O=P(O)(O)OCC1OC(O)C(O)C(O)C1O (stereo not given) [glucose-6-phosphate]",
    "obs_value": 1.22
  }
]

[1] CSCC[C@H](N)C(=O)O
[2] OCC1OC(OCC2OC(O)C(O)C(O)C2O)C(O)C(O)C1O (stereo not given)
Query string: Exercise: compare 1 and 2 ; which one has the greater LC retention time? Which one? Tell me its label.
Result string: 1
(1: 2.8 min, 2: 1.4 min)

[P] O=C(O)CCCC(=O)O
[Q] CCCCCCCCCCCCCC(=O)OCC [ethyl tetradecanoate]
Query string: Kindly compare P with Q and tell me which has the lower LC retention time figure. Your answer should be the label attached to the chosen record.
Result string: P
(P: 10.2 min, Q: 55.1 min)

[1] NC(CCC(=O)NC(CSSCC(NC(=O)CCC(N)C(=O)O)C(=O)NCC(=O)O)C(=O)NCC(=O)O)C(=O)O (stereo not given) [glutathione disulfide]
[2] CC1(C)CCC2(CO)CCC3(C)C(=CCC4C5(C)CCC(O)C(C)(C)C5CCC43C)C2C1 (stereo not given)
[3] NCCc1cnc[nH]1
Query string: // ranking: key=LC retention time, reverse=True Give me the labels in the order the question wants.
Result string: 2, 1, 3

----------
assay: RP, Waters ACQUITY UPLC HSS T3, 100 × 2.1 mm, 1.8 µm, 30 °C, 0.3 mL/min, estimated dead time 0.73 min; A: water + 0.1% formic acid, pH 3; B: methanol + 0.1% formic acid, pH 3; gradient (min/%B) 0/0 6/0 56/100 60/100; conditions: stereoisomer not certain
experimental_readout: LC retention time (min)

[
  {
    "molecule": "Cc1ncc(COP(=O)(O)O)c(C=O)c1O [pyridoxal 5-phosphate]",
    "unit_descriptor": "min",
    "LC retention time": 3.99
  },
  {
    "molecule": "CCCCCCCC/C=C\\CCCCCCCCCC(=O)OC [methyl cis-11-eicosenoate]",
    "unit_descriptor": "min",
    "LC retention time": 57.9
  },
  {
    "molecule": "O=C(C=Cc1ccc(O)c(O)c1)OC(Cc1ccc(O)c(O)c1)C(=O)O (stereo not given) [rosmarinic acid]",
    "unit_descriptor": "min",
    "LC retention time": 30
  },
  {
    "molecule": "OCC(O)C(O)C(O)CO (stereo not given) [adonitol]",
    "unit_descriptor": "min",
    "LC retention time": 1.38
  },
  {
    "molecule": "O=Cc1ccc(O)c(O)c1 [3,4 dihydroxybenzaldehyde]",
    "unit_descriptor": "min",
    "LC retention time": 16.2
  }
]

[1] O=c1cc(-c2ccc(O)cc2)oc2cc(O)cc(O)c12 [apigenin]
[2] O=C(O)C[C@H](O)C(=O)O [L-malic acid]
[3] CCCCCCN [hexylamine]
Query string: Arrange these 3 molecules in increasing order of LC retention time. # respond with the labels, arranged in the requested order
Result string: 2, 3, 1
(2: 2 min, 3: 15.1 min, 1: 37.1 min)

[A] CCCCCCCCOC1OC(CO)C(O)C(O)C1O (stereo not given) [octyl glucopyranoside]
[B] OCC1OC(OC2C(Oc3cc4c(O)cc(O)cc4[o+]c3-c3ccc(O)c(O)c3)OC(CO)C(O)C2O)C(O)C(O)C1O (stereo not given) [Cyanidin 3-sophoroside]
[C] O=C(O)C(=O)C(O)C(O)C(O)CO [2-keto-D-gluconic acid]
Query string: // sort entries: LC retention time, high to low # respond with the labels, arranged in the requested order
Result string: A, B, C
